Molecular target: Human Factor D (Homo sapiens (Human))
Sequence (P00746 26-253): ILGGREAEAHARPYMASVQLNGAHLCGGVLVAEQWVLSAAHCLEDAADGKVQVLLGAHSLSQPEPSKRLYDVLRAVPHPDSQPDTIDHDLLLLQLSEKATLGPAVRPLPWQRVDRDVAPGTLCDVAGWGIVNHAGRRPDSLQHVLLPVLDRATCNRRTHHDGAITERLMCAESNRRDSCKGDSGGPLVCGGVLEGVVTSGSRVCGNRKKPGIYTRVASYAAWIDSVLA
Experiment: Human Factor D Assay
Type: biochemical
Details: Factor D inhibition, assay of Example 10; read-out: IC5 (Stars)
READOUT_KIND: IC50

// field: IC50; key: CCCCNC(=O)[C@@H]1C[C@@]2(C)C[C@H]2N1C(=O)Cn1nc(C(C)=O)c2cc(-c3cnc(C)nc3)ccc21 ; value = < 1000 nM

// field: IC50; key: CC(=O)c1nn(CC(=O)N2[C@H](C(=O)Nc3cc(COCc4ccccc4)cc(Br)n3)C[C@@]3(C)C[C@@H]23)c2ccc(-c3cnc(C)nc3)cc12 ; value = < 1000 nM

// field: IC50; key: Cc1ncc(-c2ccc3c(c2)c(C(=O)NC(C)C)nn3CC(=O)N2[C@H](C(=O)Nc3nc(Br)ccc3C)C[C@@]3(C)C[C@@H]23)cn1 ; value = 1000 to 10000 nM

----------
Can you tell me IC50 for the items I'm about to list?
Molecular target: Human Factor D (Homo sapiens (Human))
Test: Human Factor D Assay
Type: biochemical
Settings: Factor D inhibition, assay of Example 10; read-out: IC5 (Stars)

// field: IC50; key: CC(=O)c1nn(CC(=O)N2[C@H](C(=O)Nc3nc(Br)c(F)cc3C)C[C@@]3(CN4CC(F)(F)C4)C[C@@H]23)c2cnc(-c3cnc(C)nc3)cc12 [Compound 250] ; value = < 1000 nM

// field: IC50; key: CC(=O)c1nn(CC(=O)N2[C@H](C(=O)Nc3nc(C(F)(F)F)ccc3C)C[C@@]3(CCCN(C)C)C[C@@H]23)c2c(CF)cc(-c3cnc(C)nc3)cc12 [Compound 380] ; value = < 1000 nM

// field: IC50; key: CC(=O)c1nn(CC(=O)N2[C@H](C(=O)Nc3nc(Br)ccc3-c3nnc(C(C)C)o3)C[C@@]3(C)C[C@@H]23)c2ccc(-c3cnc(C)nc3)cc12 [Compound 362] ; value = 1000 to 10000 nM

// field: IC50; key: CC(=O)c1nn(CC(=O)N2[C@H](C(=O)Nc3nc(Br)ccc3C)C[C@@]3(Cc4nnc(C)o4)C[C@@H]23)c2c(CF)cc(-c3cnc(C)nc3)cc12 [Compound 429] ; value = < 1000 nM

// field: IC50; key: CC(=O)c1nn(CC(=O)N2[C@H](C(=O)Nc3nc(Br)ccc3CN(C)C)C[C@@]3(C)C[C@@H]23)c2c(Cl)cc(-c3cnc(C)nc3)cc12 [Compound 408] ; value = < 1000 nM

// field: IC50; key: CC(=O)c1nn(CC(=O)N2[C@H](C(=O)NCCC(C)(C)C)C[C@@]3(C)C[C@@H]23)c2ccc(-c3cnc(C)nc3)cc12 [Compound 552] ; value = < 1000 nM

----------
Target: Human Factor D (Homo sapiens (Human))
Test: Human Factor D Assay
Assay type: biochemical
pIC50: −log10 of the molar value.
READOUT_KIND: pIC50

Param item: CC(=O)c1nn(CC(=O)N2[C@H](C(=O)NC(Cc3ccccc3)Cc3ccccc3)C[C@@]3(C)C[C@@H]23)c2c(C)cc(-c3cnc(C)nc3)cc12 ; param system: Human Factor D (Homo sapiens (Human)); output pIC50: 5.00 to 6.00

----------
Molecular target: Human Factor D (Homo sapiens (Human))
Assay: Human Factor D Assay
Type: biochemical
Conditions: Factor D inhibition, assay of Example 10; read-out: IC5 (Stars)
pIC50: −log10 of the molar value.
READOUT_KIND: pIC50

// field: pIC50; key: CC(=O)c1nn(CC(=O)N2[C@H](C(=O)Nc3nc(Br)ccc3CN3CC(F)C3)C[C@@]3(C)C[C@@H]23)c2ccc(-c3cnc(C)nc3)cc12 ; value = > 6.00

// field: pIC50; key: CC(=O)c1nn(CC(=O)N2[C@H](C(=O)Nc3cc(C)cc(Br)n3)C[C@@]3(C)C[C@@H]23)c2c(C)cc(-c3cnc(C)nc3)cc12 ; value = > 6.00

// field: pIC50; key: CC(=O)c1nn(CC(=O)N2[C@H](C(=O)Nc3nc(Br)ccc3C)C[C@@]3(Cc4nnc(C)o4)C[C@@H]23)c2c(C)cc(-c3cnc(C)nc3)cc12 ; value = > 6.00

// field: pIC50; key: CC(=O)c1nn(CC(=O)N2[C@H](C(=O)Nc3nc(Br)ccc3CC(C)C)C[C@@]3(C)C[C@@H]23)c2cnc(-c3cnc(C)nc3)cc12 ; value = > 6.00

// field: pIC50; key: CCCc1cc(Br)nc(NC(=O)[C@@H]2C[C@@]3(C)C[C@H]3N2C(=O)Cn2nc(C(C)=O)c3cc(-c4cnc(C)nc4)ccc32)c1 ; value = 5.00 to 6.00

// field: pIC50; key: CC(=O)c1nn(CC(=O)N2[C@H](C(=O)Nc3nc(Br)ccc3C)C[C@@]3(CN(CCO)CCO)C[C@@H]23)c2cnc(-c3cnc(C)nc3)cc12 ; value = > 6.00

Values from patent US11084800B2
